Provide the reported TGI of each item.
# System: MCF7 breast
# ASSAY SUMMARY: NCI tumour cell line growth inhibition, 48 h
Answers are plain numbers, in µM.

Some compounds with known TGI results, for comparison:
• COc1cc(NC(=O)NCc2ccco2)ccc1-c1ccc(NC(=O)NCc2ccco2)cc1OC = 4.68
• COc1ccc(-c2cc(-c3cccc(NS(C)(=O)=O)c3)nc(N)c2C#N)cc1 = 25.3
• NC(CC(O)(c1ccccc1)c1ccccc1)c1ccccc1S (stereo unspecified) = 29.9
• CCOc1ccc(/C=C2\NC(=S)N(/C=C3\C(=O)Oc4ccccc4C3=O)C2=O)cc1 = 63.1
• CCCCCN(CCCCC)CC(C)(C)C(O)c1ccc(OC)c2ccccc12 (stereo unspecified) = 22.5
• CN(C)CCNC(=O)c1ccc(Cl)c2cc3ccccc3nc12 = 3.58
• COC([C@@H](OC(=O)c1ccccc1)[C@H](OC(=O)c1ccccc1)C(O)COC(=O)c1ccccc1)n1cc(C)c(=O)[nH]c1=O (stereo partly specified) = 52.3
• CN(C)CCCCn1ccc2c1C(=O)c1c(c(O)c3ccccc3c1O)C2=O = 28.4
• Fc1ccc2c(c1)C1=C(CO2)C(c2ccc(Cl)cc2)NC(=S)N1 (stereo unspecified) = 42.2

Given item CC(=O)OC(C)c1cc2c(s1)C(=O)c1c(C(C)OC(C)=O)csc1C2=O (stereo unspecified) , the value recorded as its TGI is 3.09

----------
# System: DU-145 prostate
# ASSAY SUMMARY: NCI tumour cell line growth inhibition, 48 h; in the data active = GI50 below about 0.43 µM; inactive = the rest
Outcome (select one): T for active, F for inactive

Use the examples below as a reference point.
* COc1cc(F)c(/C=C/c2cc(/C=C/c3cc(OC)c(OC)cc3F)n(-c3cc(F)cc(F)c3)n2)cc1OC | F
* COc1cc(NC(=O)NCc2ccco2)ccc1-c1ccc(NC(=O)NCc2ccco2)cc1OC | F
* COc1ccc(Cn2cc3c(c2-c2cc(OC)c(OC)c(OC)c2)CCc2cnoc2-3)cc1N | T

Task: Status in this test for CN(C)CCCCn1ccc2c1C(=O)c1c(c(O)c3ccccc3c1O)C2=O ?
Output: F

Task: Status in this test for CC1(C)CC([P+](c2ccccc2)(c2ccccc2)c2ccccc2)=NN1 ?
Output: F

----------
# Test system: HT29 colon
# ASSAY SUMMARY: NCI tumour cell line growth inhibition, 48 h
Provide the reported TGI of each item.

Some compounds with known TGI results, for comparison:
* O=C1c2ccccc2-c2c1c1ccc([N+](=O)[O-])cc1c(=O)n2CCCNCCO | 0.82 µM
* O=C1C(=O)N(c2nccs2)C(=O)C(=O)C1c1nc2ccccc2s1 | > 100 µM
* CCCN(CCC)C1CCc2c(ccc3cc[nH]c23)C1 (centres undefined) | > 100 µM
* Cn1ccnc1CCc1ccc(Cl)c(Cl)c1 | > 100 µM
* CCc1ccc2nccc(NCCCN(C)C)c2c1[N+](=O)[O-] | > 100 µM

Parameters: items (list). Returns: TGI for each item.
1. NC(=O)c1ccccc1NC(=O)c1ccccc1Cl
2. COC12C=CC(C=C1C#N)CC2 (centres undefined) (tested in a mixture with another compound)
3. CC12ON(P(=O)(c3ccccc3)c3ccccc3)C(C)(c3ccccc31)c1ccccc12
4. Cn1c(=O)c(C(=O)NC(=O)NCCCCCOC(=O)CCCCCCCCCCC(=O)OCCCCCNC(=O)NC(=O)c2cn(Cc3ccccc3)c(=O)n(C)c2=O)cn(Cc2ccccc2)c1=O
5. c1ccc(B2OCC(C3OB(c4ccccc4)OC4COB(c5ccccc5)OC43)O2)cc1 (centres undefined)
6. CNC1=C(C(=O)OC)SC(c2ccccc2)(c2ccccc2)SC1
7. O=[N+]([O-])c1cccc(Cl)c1Oc1ccc(S(=O)(=O)/N=C(\NO)Nc2ccc(Cl)cc2)cc1

Output:
["> 100 µM", "> 100 µM", "> 100 µM", "> 100 µM", "> 100 µM", "> 100 µM", "30.8 µM"]

Parameters: items (list). Returns: TGI for each item.
1. FC(F)(F)c1cccc2c(SCCc3n[nH]c(=S)o3)ccnc12
2. COc1ccc2c(c1)c1nn(CCN3CCCCC3)c3ccc4c(=O)n(CCN(C)C)c(=O)n2c4c13
3. NCCCN1CCN(CCCNc2nc3ccccc3c3[nH]c4ccccc4c23)CC1
4. CN(CC(=O)O)Cc1oc(CO)cc(=O)c1O
5. Cc1ccc(S(=O)(=O)n2ccc(-c3ccc4ccn(S(=O)(=O)c5ccc(C)cc5)c4c3)c2)cc1
6. COC1(c2cccs2)c2ccccc2C(OC)(c2cccs2)c2ccccc21 (centres undefined)
7. O=C1CS[C@@](CC(c2ccc(Cl)cc2)c2ccc(Cl)cc2)(c2ccc(Cl)cc2)N1
8. O=C(c1ccc(O)c([N+](=O)[O-])c1)c1ccc(O)c([N+](=O)[O-])c1

Output:
["> 100 µM", "0.0963 µM", "1.99 µM", "> 100 µM", "> 100 µM", "> 100 µM", "> 100 µM", "> 100 µM"]

Parameters: items (list). Returns: TGI for each item.
1. O=C(C(Cl)=C(N1CCCCC1)N1CCCCC1)C(Cl)Cl
2. CN(C)CCSCCO
3. COc1c(C)c(C/C=C(\C)CC/C=C(\C)CC/C=C(\C)CCC=C(C)C)c(OC)c2ccccc12
4. O=C(CNc1ccc2c(=S)c3ccccc3[nH]c2c1)Nc1ccccc1-c1ccccc1NC(=O)CNc1ccc2c(=S)c3ccccc3[nH]c2c1
5. O=C(NC1C2CC3CC(C2)CC1C3)/C(Cl)=C1/Sc2ccccc2NC1=O (centres undefined)
6. CCOC(=O)C(C(=O)OCC)C(=O)c1ccccc1C(=O)c1ccccc1
7. O=c1cccccc1[O-].O=c1cccccc1[O-].O=c1cccccc1[O-].[Ce+3]

Output:
1: > 100 µM; 2: > 100 µM; 3: > 100 µM; 4: 48.4 µM; 5: > 100 µM; 6: > 100 µM; 7: > 100 µM
